measurement.description: Plasma protein binding, equilibrium dialysis, mouse plasma
condition.info: buffer/buffer equilibrium dialysis control (HTDialysis)
measurement.label: recovery at 5 hours, 0.1 uM (%)
Report as a plain number; the unit % is understood.

Query: Consider the compound shown here: CC(C)C[C@@H]1NC(=O)[C@H](Cc2c[nH]c3ccccc23)NC(=O)[C@@H]2CCCN2[C@H](C(=O)NC(C)(C)C)[C@H](C)NC(=O)[C@H]([C@@H](C)O)NC(=O)[C@H](CC(=O)O)NC1=O [ET00762] What is its recorded recovery at 5 hours, 0.1 uM?
Response: 99

----------
target.under.test: integrin α4β7 (Homo sapiens, UniProt P13612+P26010)
Sequence (P13612 34-977 limits assumed): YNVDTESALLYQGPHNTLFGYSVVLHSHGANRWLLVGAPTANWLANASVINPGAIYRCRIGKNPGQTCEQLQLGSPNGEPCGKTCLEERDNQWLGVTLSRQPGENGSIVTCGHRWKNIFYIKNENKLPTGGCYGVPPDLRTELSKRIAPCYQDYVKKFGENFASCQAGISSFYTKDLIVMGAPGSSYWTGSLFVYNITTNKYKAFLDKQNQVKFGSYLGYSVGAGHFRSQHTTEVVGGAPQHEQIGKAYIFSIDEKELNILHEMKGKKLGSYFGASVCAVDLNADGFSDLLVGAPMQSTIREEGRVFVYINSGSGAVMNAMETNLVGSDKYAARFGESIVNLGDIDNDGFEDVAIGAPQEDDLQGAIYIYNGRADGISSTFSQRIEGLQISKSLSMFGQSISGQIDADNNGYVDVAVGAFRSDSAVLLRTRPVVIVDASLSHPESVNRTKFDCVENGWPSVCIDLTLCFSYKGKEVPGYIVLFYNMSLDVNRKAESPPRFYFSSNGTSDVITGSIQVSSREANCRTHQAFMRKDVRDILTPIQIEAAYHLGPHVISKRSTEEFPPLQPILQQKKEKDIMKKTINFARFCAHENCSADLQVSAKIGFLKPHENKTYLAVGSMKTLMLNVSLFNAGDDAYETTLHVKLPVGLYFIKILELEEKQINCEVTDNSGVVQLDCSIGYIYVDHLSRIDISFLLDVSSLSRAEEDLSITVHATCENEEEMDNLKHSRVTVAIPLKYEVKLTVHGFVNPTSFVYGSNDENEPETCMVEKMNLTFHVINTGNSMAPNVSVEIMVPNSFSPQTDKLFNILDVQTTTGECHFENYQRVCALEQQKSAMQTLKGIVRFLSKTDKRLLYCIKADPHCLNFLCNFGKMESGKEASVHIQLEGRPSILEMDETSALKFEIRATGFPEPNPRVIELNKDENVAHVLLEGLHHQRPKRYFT
Sequence (P26010 20-723 limits assumed): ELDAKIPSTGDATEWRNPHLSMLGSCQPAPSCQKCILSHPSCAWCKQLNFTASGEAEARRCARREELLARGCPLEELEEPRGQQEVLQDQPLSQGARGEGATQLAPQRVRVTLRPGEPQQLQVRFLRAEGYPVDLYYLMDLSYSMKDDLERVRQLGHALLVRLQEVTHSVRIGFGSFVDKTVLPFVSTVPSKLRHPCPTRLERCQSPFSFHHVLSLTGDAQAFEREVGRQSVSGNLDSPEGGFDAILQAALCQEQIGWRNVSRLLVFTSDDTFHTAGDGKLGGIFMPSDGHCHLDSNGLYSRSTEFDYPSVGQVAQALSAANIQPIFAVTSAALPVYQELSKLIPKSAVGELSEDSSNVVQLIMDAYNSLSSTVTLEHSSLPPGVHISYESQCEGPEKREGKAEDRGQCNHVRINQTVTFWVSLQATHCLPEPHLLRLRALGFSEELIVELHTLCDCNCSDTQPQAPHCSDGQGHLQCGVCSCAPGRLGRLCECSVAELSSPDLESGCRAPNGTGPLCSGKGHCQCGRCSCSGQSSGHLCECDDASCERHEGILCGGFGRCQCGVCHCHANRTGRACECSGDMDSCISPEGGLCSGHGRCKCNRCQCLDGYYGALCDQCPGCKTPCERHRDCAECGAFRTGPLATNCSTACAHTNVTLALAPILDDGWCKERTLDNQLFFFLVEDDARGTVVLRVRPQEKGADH
measurement.description: Integrin α4β7—MAdCAM-1 competition assay (ELISA)
Type: binding
condition.info: ratio a4b1 ELISA IC50 / a4b7 ELISA IC50
measurement.label: Selectivity ELISA
Lab note: jot down the number only; don't add units.

A selection of reference data follows.
compound	Selectivity ELISA
CC(C)C[C@@H]1NC(=O)CN(C)C(=O)[C@H](Cc2cccc(I)c2)NC(=O)[C@@H]2CCCN2[C@H](C(=O)NC(C)(C)C)[C@H](C)NC(=O)[C@H]([C@@H](C)O)NC(=O)[C@H](CC(=O)O)NC1=O [Compound 106]	18.7
CC(C)C[C@@H]1NC(=O)[C@H]2CCCCN2C(=O)[C@H](Cc2ccccc2-c2ccccc2)NC(=O)[C@@H]2CCCN2[C@H](C(=O)NC(C)(C)C)[C@H](C)NC(=O)[C@H]([C@@H](C)O)NC(=O)[C@H](CC(=O)O)NC1=O [Compound 134]	7.6

Query: # input compound: CC(C)C[C@@H]1NC(=O)C2(CCCC2)NC(=O)[C@@H]2CCCN2[C@H](C(=O)NC(C)(C)C)[C@H](C)NC(=O)[C@H]([C@@H](C)O)NC(=O)[C@H](CC(=O)O)NC1=O [UM0132368-01] ; wanted: its Selectivity ELISA
Response: 14.9

Query: Requested read-out: Selectivity ELISA. Entry: CC(C)C[C@@H]1NC(=O)C[C@H](CCCCN)NC(=O)[C@H](CC2CCCCC2)NC(=O)[C@@H]2CCCN2[C@H](C(=O)NC(C)(C)C)[C@H](C)NC(=O)[C@H]([C@@H](C)O)NC(=O)[C@H](CC(=O)O)NC1=O [Compound 210]
Response: 16.0
